SYSTEM UNDER TEST: GalfNeoLect (Streptomyces sp. JHA19, UniProt A0A0K2SRV3, E464Q)
Sequence (A0A0K2SRV3 45-786 E464Q limits assumed): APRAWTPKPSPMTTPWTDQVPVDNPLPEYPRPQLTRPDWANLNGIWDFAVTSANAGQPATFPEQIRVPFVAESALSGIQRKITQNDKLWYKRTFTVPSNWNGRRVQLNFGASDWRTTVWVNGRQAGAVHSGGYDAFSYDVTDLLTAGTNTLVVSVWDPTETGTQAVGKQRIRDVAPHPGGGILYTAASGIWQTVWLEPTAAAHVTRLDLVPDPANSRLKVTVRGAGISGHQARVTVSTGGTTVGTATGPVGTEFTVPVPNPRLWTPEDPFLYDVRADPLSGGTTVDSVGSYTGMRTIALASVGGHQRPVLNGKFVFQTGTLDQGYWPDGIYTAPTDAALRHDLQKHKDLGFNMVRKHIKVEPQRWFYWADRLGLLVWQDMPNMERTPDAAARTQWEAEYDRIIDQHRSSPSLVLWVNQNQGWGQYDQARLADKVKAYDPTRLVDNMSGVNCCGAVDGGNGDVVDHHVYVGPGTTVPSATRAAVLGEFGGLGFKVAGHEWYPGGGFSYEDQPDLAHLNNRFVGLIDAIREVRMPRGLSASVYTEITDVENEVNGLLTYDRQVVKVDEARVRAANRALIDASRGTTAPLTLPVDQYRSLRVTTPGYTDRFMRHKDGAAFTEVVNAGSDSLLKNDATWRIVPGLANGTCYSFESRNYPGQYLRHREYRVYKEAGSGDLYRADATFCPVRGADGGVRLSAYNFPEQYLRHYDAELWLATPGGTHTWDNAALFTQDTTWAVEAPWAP
METHOD DESCRIPTION: Competitive inhibition assay of GalfNGP binding to immobilised GalfNeoLect
Set-up: species or system Streptomyces sp. strain JHA19
SETUP CONDITIONS: biotinylated GalfNGP (2 μg/mL) as tracer; read-out: IC50 of inhibitors towards GalfNeoLect
MEASUREMENT LABEL: pIC50
Reminder that pIC50 is minus the log10 of a molar concentration.

Would you please look over these solved cases?
- COMPOUND: "O=[N+]([O-])c1ccc(O[C@@H]2O[C@@H]([C@H](O)CO)[C@H](O)[C@H]2O)cc1 [pNP-β-D-Galf]"
  pIC50: 2.94
- COMPOUND: "Cc1ccc(S[C@@H]2O[C@@H]([C@H](O)CO)[C@H](O)[C@H]2O)cc1 [Galf-thioaryl]"
  pIC50: 3.74

Next, consider the following compound.
Entry [N-]=[N+]=N[C@@H]1O[C@@H]([C@H](O)CO)[C@H](O)[C@H]1O [Galf-N3, β-D-galactofuranosyl azide] ; pIC50 = 2.86
